System: L3 animals
methodSummary: Abnormal locomotory behaviour of L3 animals on solid agar (extended SAR)
Type: in vivo, Caenorhabditis elegans
experimentalSetup: Caenorhabditis elegans; 15 uM, 1 h exposure, L3, mean of 4 replicates; read-out: % any phene 1 h (conc.) 15
Examples of compounds with documented pest or weed control at 15 µM follow.

compound: CC1CCC(N2CCN(c3ccccc3)CC2)CC1 (stereo not drawn) [Iz]
studySystem: L3 animals
pest or weed control at 15 µM [%]: 96.7
//
compound: Fc1ccc(N2CCN(C3CCCCCC3)CC2)cc1 [Iaa]
studySystem: L3 animals
pest or weed control at 15 µM [%]: 89.2
//
compound: c1ccc(N2CCN(CC3CCCC3)CC2)cc1 [Ihh]
studySystem: L3 animals
pest or weed control at 15 µM [%]: 70
